Target: human LXRβ (Homo sapiens, UniProt P55055)
Construct: biotin (biotinylated; biotinylation tag not described); made in house; host or cells: E. coli
Sequence (P55055 whole entry): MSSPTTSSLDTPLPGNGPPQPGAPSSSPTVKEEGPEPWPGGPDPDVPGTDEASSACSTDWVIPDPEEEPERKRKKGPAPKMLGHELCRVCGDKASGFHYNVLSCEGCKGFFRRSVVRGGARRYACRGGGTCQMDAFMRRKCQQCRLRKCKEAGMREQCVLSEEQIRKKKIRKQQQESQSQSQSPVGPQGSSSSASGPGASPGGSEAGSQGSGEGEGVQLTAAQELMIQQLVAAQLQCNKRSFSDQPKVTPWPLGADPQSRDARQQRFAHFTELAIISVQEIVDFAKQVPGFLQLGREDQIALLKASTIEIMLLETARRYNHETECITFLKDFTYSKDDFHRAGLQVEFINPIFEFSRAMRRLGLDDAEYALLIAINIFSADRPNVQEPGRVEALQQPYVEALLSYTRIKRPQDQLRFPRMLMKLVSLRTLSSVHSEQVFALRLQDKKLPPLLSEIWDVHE
Assay: Ligand-binding test procedure for human LXRβ (3H T0901317 competition, flash plates)
Conditions: IC50 (μM) LXRα binding/IC50 (μM) LXRβ binding
Exercise: state measured Binding ratio a/b for each of the molecules provided.
Please respond with just the number, no unit label.

# Binding ratio a/b measured on human LXRβ (Homo sapiens, UniProt P55055) for item O=C(O)c1cc2cccc(NCc3cccc(-c4c(Cc5ccccc5)cnc5c(C(F)(F)F)cccc45)c3)c2[nH]1 = 3

# Binding ratio a/b measured on human LXRβ (Homo sapiens, UniProt P55055) for item O=C(O)Cc1cccc2c(NCc3cccc(-c4ccnc5c(C(F)(F)F)cccc45)c3)cccc12 = 48

# Binding ratio a/b measured on human LXRβ (Homo sapiens, UniProt P55055) for item O=C(O)c1cccc2c(NCc3cncc(-c4c(Cc5ccccc5)cnc5c(C(F)(F)F)cccc45)c3)cccc12 = 8

# Binding ratio a/b measured on human LXRβ (Homo sapiens, UniProt P55055) for item O=C(O)CC1=CCCc2c(OCc3cccc(-c4c(Cc5ccccc5)cnc5c(C(F)(F)F)cccc45)c3)cccc21 = 16
